molecular target: DAPK3 (UniProt O43293); assay: pIC50, kinobeads binding competition; conditions: cell material: Lysate mix
Sequence (O43293 whole entry, looked up): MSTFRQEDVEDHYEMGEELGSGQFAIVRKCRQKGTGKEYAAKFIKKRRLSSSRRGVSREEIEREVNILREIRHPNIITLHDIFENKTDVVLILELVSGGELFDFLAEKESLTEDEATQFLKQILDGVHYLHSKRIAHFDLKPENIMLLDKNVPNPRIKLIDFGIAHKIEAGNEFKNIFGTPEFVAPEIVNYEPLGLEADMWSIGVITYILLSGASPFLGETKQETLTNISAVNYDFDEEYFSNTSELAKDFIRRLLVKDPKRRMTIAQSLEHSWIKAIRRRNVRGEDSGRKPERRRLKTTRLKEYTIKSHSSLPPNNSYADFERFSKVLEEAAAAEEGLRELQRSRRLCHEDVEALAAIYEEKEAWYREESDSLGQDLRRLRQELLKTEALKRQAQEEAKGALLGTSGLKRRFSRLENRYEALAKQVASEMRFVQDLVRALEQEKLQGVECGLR
READOUT_TYPE: pIC50

# COMPOUND_SMILES, pIC50
measured = [
    ("CCNC(=O)c1cc(Nc2cc(C)[nH]n2)nc(N2CCN(Cc3ccc(S(=O)(=O)F)cc3)CC2)n1", 5.14),
    ("CCNC(=O)c1cc(Nc2cc(C3CC3)[nH]n2)nc(N2CCN(Cc3ccc(S(=O)(=O)F)cc3)CC2)n1", 4.83),
    ("C#CCNC(=O)c1cc(Nc2cc(C)[nH]n2)nc(N2CCN(Cc3ccc(S(=O)(=O)F)cc3)CC2)n1", 4.77),
]
